Overview of recorded composite z-score for various compounds
ASSAY_SUMMARY: binders of probe aFSTL3 on microarray, primary screen, stem cell growth factor project, biochemical, small-molecule microarray, fluorescence 635/667 (AID 1064);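 further: measures binding of the biotinylated anti-FSTL3 antibody to printed compounds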
APPLIED_CONDITIONS: higher = more signal

A selection of reference data follows.
> print(dat)
                                   compound  result
1  CC(=O)C1=CCC(c2ccccc2)N(S(=O)(=O)c2ccc(C)cc2)C1 (stereo not drawn)   0.174
2  CC1=C2[C@@H](CCc3ccccc3)OB(O)C[C@@H]2n2c(=O)n(-c3ccccc3)c(=O)n2C1  -0.388

In the following, a different compound is considered.
Challenge: Give the measured composite z-score of Cc1ccc([C@H]2[C@H](C(=O)O)[C@H](Sc3ccccc3)[C@@H](C(C)C)N2S(=O)(=O)c2ccc(C)cc2)cc1 .
Response given: -0.182
